Origin of values: PubChem BioAssay (NCI)

Test system: HS 578T breast
PROTOCOL DESCRIPTION: NCI-60 one-dose screen, 48 h
PARTICULARS: 10 µM unless noted
The panel holds about 83,000 compounds, 20% with a hit somewhere; the sample as a whole holds those more often. Active and inactive are the calls of the source. The calls were made as follows: active = growth percent below 10; inactive = the rest.
Answer with one of the outcomes T = active, F = inactive

A selection of reference data follows.
COMPOUND: Nc1c(C(=O)Nc2c(Cl)cccc2Cl)sc2nc3c(cc12)CCCCC3
QUALITATIVE LABEL: F
--
COMPOUND: Cc1nc(Nc2cccnc2)sc1C(=O)/C=C/c1ccc(F)cc1
QUALITATIVE LABEL: F
--
COMPOUND: CN(C)c1nc(N)c(N=O)c(N)n1
QUALITATIVE LABEL: F
--
COMPOUND: Clc1ccc(/C=C/c2nc(N3CCOCC3)c3nc(Cl)c(Cl)cc3n2)cc1
QUALITATIVE LABEL: F
--
COMPOUND: C=C1C(=O)O[C@H]2[C@H]1CC/C(COC(=O)NCc1cc(OC)c(OC)c(OC)c1)=C\CC[C@@]1(C)O[C@@H]21
QUALITATIVE LABEL: F

[in] For COc1cc(C(=O)/C=C/c2cc(C(=O)c3cc(OC)c(OC)c(OC)c3)ccc2OC)ccc1N , which call appears in the assay record?
[out] F

[in] Hey, what did the test say about CC(C)N(Cc1ccc(CN(C(=O)CCl)C(C)C)cc1)C(=O)CCl ?
[out] F

[in] Please indicate how the test categorized COc1ccc(-c2cn[nH]c2-c2cc(OC)c3c(c2)OCCO3)cc1 .
[out] T

[in] What classification did Clc1nc2ccccc2nc1CI end up with in this test?
[out] F

[in] Assay result, entry Nc1nc(-c2cc3ccccc3o2)cc(=O)c(=O)[nH]1 — outcome?
[out] F

[in] Query: recorded result category for COc1cc2oc(-c3cccc(NC(=O)Nc4ccc5c(c4)OCO5)c3)cc(=O)c2c(OC)c1OC in this test
[out] F

[in] How did this test come out for O=C(Cc1n[nH]c(=O)c2ccccc12)OCc1c(Cl)cccc1Cl ?
[out] F

[in] Per the records of this test, what outcome belongs to COc1cc(NC(=O)c2cc3ccccc3nc2Nc2ccc(F)cc2)cc(OC)c1OC ?
[out] F

[in] Fill in: this test's call for COc1ccc(-c2nnc(COc3ccc(NS(=O)(=O)c4ccc(OC)cc4)cc3F)o2)cc1 is ___
[out] F

[in] Can you look up the reported call for CCCCOc1nc2c(C)cccc2cc1C1CNC(=O)c2ccccc2N1 (stereo unspecified) for me?
[out] F

[in] How did this test come out for CC/C=C\C[C@H](O)C/C=C1/C(=O)C(Cl)=C[C@@H]1C/C=C\CCCC(=O)O ?
[out] F

[in] What was the test verdict on Cc1cnc(NC(=O)C(Cc2ccccc2)NC(=O)c2ccccc2)s1 (stereo unspecified) ?
[out] F

[in] Query: recorded result category for Cc1ccc(Oc2nc3ccccc3cc2-c2nnc(Cn3c(COc4ccccc4)nc4ccccc43)o2)cc1 in this test
[out] F

[in] How was COc1cc(CCn2nnc3c(Nc4ccc(N5CCOCC5)cc4)ncnc32)cc(OC)c1 classified in this test?
[out] F

[in] Tell me the assay call for Cc1oc2nc[nH]c(=O)c2c1C(=O)/C=C/c1ccc(Cl)cc1Cl please.
[out] F

[in] // return assay outcome for Cc1cc(-c2ccccc2)c(C)n1Cc1ccc(Cl)cc1
[out] F
